System: MDA-MB-231 breast
procedure details: NCI-60 one-dose screen, 48 h
condition summary: 10 µM unless noted
Compounds without any hit were thinned out: in the full panel of roughly 83,000, 20% have a hit. Active and inactive are the calls of the source. The calls were made as follows: active = growth percent below 10; inactive = the rest.
Would you mind answering with one of these outcomes? 1 = active, 0 = inactive

// return assay outcome for Cc1ccccc1Nc1nc(SC(C)C)nc(-c2ccccc2)c1C#N
0

// return assay outcome for COc1ccc2[nH]cc(-c3nc(N)nnc3-c3cn(C)c4ccc(Br)cc34)c2c1
0

// return assay outcome for Cc1[nH]c(C(=O)Nc2ccccc2OCc2cccc(C(=O)NC3CCCNC3)c2)c(Cl)c1Cl (stereo not drawn)
1

// return assay outcome for CC(C)=CCC[C@](C)(O)[C@H]1CC[C@]2(C)[C@@H]1CC[C@@H]1[C@@]3(C)CC[C@H](N)C(C)(C)[C@@H]3CC[C@]12C
0

// return assay outcome for COc1ccccc1Cn1cc(C#N)c(N)c1C(=O)c1ccc(Br)cc1
0

// return assay outcome for Brc1ccc2[nH]cc(-c3nn4cc(-c5nccs5)nc4s3)c2c1
1

// return assay outcome for O=S(=O)(Oc1ccc(-c2cn3ccsc3n2)cc1)c1cccc(C(F)(F)F)c1
0

// return assay outcome for Clc1ccc2[nH]cc(-c3nn4cc(-c5cccnc5)nc4s3)c2c1
0

// return assay outcome for O=C(COc1ccc(/C=C2\C(=O)Nc3ccc(F)cc32)cc1)Nc1ccccc1
0

// return assay outcome for Clc1ccc(CSc2nnc(-c3ccc(Cl)cc3)n2-c2ccccc2)cc1
0

// return assay outcome for COc1cc(C(=O)c2cc(C(C)=O)c3c(C)cccn23)cc(OC)c1OC
0

// return assay outcome for C=C(C=O)[C@@H]1CC[C@]2(C(=O)O)CC[C@]3(C)C(CC[C@@H]4[C@@](C)(CCC#N)[C@H](C(=C)C=O)CC[C@]43C)[C@@H]12 (stereo partly drawn)
0

// return assay outcome for CN1CCN(Cc2ccc(NC(=O)c3cncc(C#Cc4cnc5ccc(OCC(F)F)nn45)c3)cc2C(F)(F)F)CC1
1

// return assay outcome for CC1=C(C)C(=O)C(Nc2cccc(C(=O)OC(C)(C)C)c2)=CC1=O
0

// return assay outcome for O=S(=O)(NCCCNc1nccc(-c2[nH]c(-c3ccccc3)nc2-c2ccc(F)c(O)c2)n1)c1ccccc1
0

// return assay outcome for CN(C)CCCOc1ccc(C(=C(c2ccccc2)C2CCCC2)c2ccc(OCCCN(C)C)cc2)cc1
1

// return assay outcome for O=C1[C@@H]2Cc3c([nH]c4ccccc34)[C@@H](c3ccc(Cl)cc3)N2C(=O)CN1C1CCN(Cc2ccccc2)CC1
0

// return assay outcome for CC(C)(C)Nc1nc2c(OCCc3ccccc3)cccn2c1-c1ccc([N+](=O)[O-])cc1
0

---

Test system: HCC-2998 colon
procedure details: NCI-60 one-dose screen, 48 h (100 = growth as untreated, 0 = no growth, -100 = all killed)
condition summary: 10 µM unless noted
About 83,000 compounds went through this panel and 20% of them were active in at least one assay; those are over-represented in the sample as a whole.
measurement label: growth (%)
Your answer is read as %, so omit the unit and give the number.

Please give the measured growth for this compound: C[C@H]1OCC2(CCN(c3cnc(C(=O)Nc4cc(F)cc5cccnc45)cn3)CC2)[C@H]1N
78.3

Please give the measured growth for this compound: O=C(CCCCCC/C=C\c1csc(Br)n1)NO
98.5

Please give the measured growth for this compound: Cc1cc(C)cc(NC2=C(Cl)C(=O)c3nc(C)ccc3C2=O)c1
77.6

Please give the measured growth for this compound: CCNC(=O)Oc1ccc(/C(=C(/C)c2ccc(Cl)cc2)c2ccc(OCCN3CCCCCC3)cc2)cc1
26.1

Please give the measured growth for this compound: CC1=C(C)C(=O)C(Nc2ccc3c(c2)OCO3)=C(Br)C1=O
105

Please give the measured growth for this compound: CC(=C(c1ccc(OCCCN(C)C)cc1)c1ccc(OCCCN(C)C)cc1)c1ccc(Cl)cc1
81.7

Please give the measured growth for this compound: Cc1ccccc1N1CCN(C2=C(Cl)C(=O)c3ncccc3C2=O)CC1
105

Please give the measured growth for this compound: Clc1ccc2[nH]cc(-c3nn4cc(-c5cccnc5)nc4s3)c2c1
117

Please give the measured growth for this compound: COc1ccc(/C=N/NC(=O)c2c(N)nn(C)c2Nc2ccccc2)cc1
59.2

Please give the measured growth for this compound: CCN(CC)c1ccc(/C=N/NC(=O)c2ccc(S(N)(=O)=O)cc2)c(O)c1
37.3

Please give the measured growth for this compound: COc1ccc(/C(=N\N=C(N)N)c2ccc(Cl)cc2)cc1OC
69.8

Please give the measured growth for this compound: COc1ccc(CC(C)=C(c2ccc(OCCN3CCCC3)cc2)c2ccc(OCCN3CCCC3)cc2)cc1
-80.3

Please give the measured growth for this compound: Cc1ccc(NC(=O)/C=C/c2ccc(OCCCOc3ccc4c(C)cc(=O)oc4c3)cc2)cc1
80.5

Please give the measured growth for this compound: O=c1c2cc(-c3ccc(F)cc3F)ccc2n(O)c(=O)n1-c1cccc(C(F)(F)F)c1
9.79

Please give the measured growth for this compound: COc1ccc(-c2nc(C#N)c(N3CCC(S(=O)(=O)N4CCOCC4)CC3)o2)cc1
107

Please give the measured growth for this compound: CN1CCN(Cc2ccc(NC(=O)c3cncc(C#Cc4cnc5ccc(OCC6COC6)nn45)c3)cc2C(F)(F)F)CC1
-77.4

Please give the measured growth for this compound: CC1=C(C)C(=O)C(Nc2ccc(C)c(C)c2)=C(Br)C1=O
96.4

Please give the measured growth for this compound: O=S(=O)(Oc1ccc(-c2cn3ccoc3n2)cc1)c1cccc(C(F)(F)F)c1
99.8

Please give the measured growth for this compound: C(=N\Nc1nc(N/N=C/c2ccc3c(c2)OCO3)nc(N2CCCCC2)n1)/c1ccc2c(c1)OCO2
83.8

Please give the measured growth for this compound: Cc1nc(/N=C(N)/N=C(\N)c2cccc(Br)c2)sc1C
64.9

Please give the measured growth for this compound: O=C(NCCNc1cc(-c2cn(-c3ccccc3)nc2-c2cccc(O)c2)ccn1)Nc1cc(C(F)(F)F)cc(C(F)(F)F)c1
96.2

Please give the measured growth for this compound: CN1CCN(CCCCCC(=O)Nc2nc(-c3cccc(NS(=O)(=O)c4cccc5c(N(C)C)cccc45)c3)cs2)CC1
83.7

Please give the measured growth for this compound: C#Cc1nc(/C=C/CCCCCCC(=O)NO)cs1
108

Please give the measured growth for this compound: O=C(N/N=C\c1ccc(F)cc1)c1ccc2nc(-c3ccc(Br)cc3)[nH]c2c1
31.3

Please give the measured growth for this compound: O=C(CCCCCCNC(=O)C(O)(O)C(F)(F)F)Nc1ccc(Cl)cc1
25.6

Please give the measured growth for this compound: CC(=O)N1N=C(c2cc3ccccc3oc2=O)CC1c1cn(-c2ccccc2)nc1-c1ccc(C)cc1 (centres undefined)
106

Please give the measured growth for this compound: O=C1C(N2CCN(c3ccccc3)CC2)=C(Cl)C(=O)c2ncccc21
97.8

Please give the measured growth for this compound: O=C(Nc1ccc(Cl)c(C(F)(F)F)c1)Nc1ccc2c(ccn2C(=O)c2cccc(F)c2)c1
44.1

Please give the measured growth for this compound: Cn1c(SCC(=O)c2ccc(Br)cc2)nc2ccccc2c1=O
108

Please give the measured growth for this compound: O=c1[nH][nH]c(-c2ccc(F)cc2)c1-c1nc2ccccc2s1
107

Please give the measured growth for this compound: CNC(=O)Nc1ccc(Nc2cc(-c3ccc(-n4cccn4)cc3)[nH]n2)c(C)c1
123

Please give the measured growth for this compound: NS(=O)(=O)c1nnc(/N=C/c2c(O)[nH]c3ccccc23)s1
107

Please give the measured growth for this compound: CCc1cccc2c3c(sc12)C(c1ccc(F)cc1)C(C#N)=C(/N=C/c1ccc(Cl)cc1)O3 (centres undefined)
10.3

Please give the measured growth for this compound: COc1ccc(OC)c(CCn2cncc2-c2c[nH]c3ccc(Cl)cc23)c1
72.4

Please give the measured growth for this compound: CCOP(=O)(OCC)OC[C@]12CCC(C)(C)C[C@H]1C1=CC[C@@H]3[C@@]4(C)CC[C@H](OP(=O)(OCC)OCC)C(C)(C)[C@@H]4CC[C@@]3(C)[C@]1(C)CC2
73.1

Please give the measured growth for this compound: CCOC(=O)C1=C(C)NC(C)=C(C(=O)OCc2ccccc2)C1c1cccc(C#N)c1 (centres undefined)
70.8

Please give the measured growth for this compound: CCN(CC)c1ccc(/C=N/NC(=O)c2ccc(NS(C)(=O)=O)cc2)c(O)c1
38.5

Please give the measured growth for this compound: CCCCSC1=C(Cl)CN(c2ccccc2)C1=O
105

Please give the measured growth for this compound: CCCCN1C(=O)/C(=c2\sc3n(c2=O)C2C(NN=3)N(CC)C(=O)N2CC)c2cc(C)ccc21 (centres undefined)
109

---

Please provide measured growth for the entries that follow.
Tested on: HCT-116 colon
procedure details: NCI-60 one-dose screen, 48 h (100 = growth as untreated, 0 = no growth, -100 = all killed)
condition summary: 10 µM unless noted
Compounds without any hit were thinned out: in the full panel of roughly 83,000, 20% have a hit.
Your answer is read as %, so omit the unit and give the number.

Please give the measured growth for this compound: CN1CCN(Cc2ccc(NC(=O)c3cncc(C#Cc4cnc(N)nc4)c3)cc2C(F)(F)F)CC1
3.4

Please give the measured growth for this compound: N#Cc1c(-c2cccs2)cc(-c2cnccn2)nc1SCC(=O)N/N=C/c1ccncc1
101

Please give the measured growth for this compound: CN1CCN(c2ccc(Nc3nc(NCCNS(=O)(=O)c4ccc5ccccc5c4)c4sccc4n3)cc2)CC1
14.7

Please give the measured growth for this compound: NNc1nnc2nc(Nc3ccccc3)nc(Nc3ccc(S(N)(=O)=O)cc3)n12
107

Please give the measured growth for this compound: CN1CC[C@@H]2[C@@]3(C)CC[C@H](O)C(C)(C)[C@@H]3CC[C@@]2(C)[C@]2(C)CC[C@@]3(CO)CCC(C)(C)C[C@@H]3C12 (stereo partly drawn)
77.9

Please give the measured growth for this compound: Cn1c(SCC(=O)c2ccco2)nc2ccccc2c1=O
102

Please give the measured growth for this compound: C#CCN(C)CCCOc1ccc(NCc2ccc(C(=O)NO)cc2)cc1Cl
10.7

Please give the measured growth for this compound: COc1ccc(Cn2cc(C#N)c(N)c2C(C)=O)cc1
108

Please give the measured growth for this compound: O=C1c2ccccc2C23C(=C(c4cncnc4)c4ccccc42)CCCN13 (stereo not drawn)
97.9

Please give the measured growth for this compound: CC1(C)CC[C@]23CC[C@]4(C)[C@H](CC[C@@H]5[C@@]6(C)CC[C@H](N)C(C)(C)[C@@H]6CC[C@]54C)[C@H]2[C@H]1OC3
-82.7

Please give the measured growth for this compound: Cc1ccc2c(n1)C(=O)C(Cl)=C(Nc1cc(C(F)(F)F)cc(C(F)(F)F)c1)C2=O
42

Please give the measured growth for this compound: COc1cc(/C=N\NC(=O)c2ccc3nc(-c4ccc(Br)cc4)[nH]c3c2)cc(OC)c1OC
18

Please give the measured growth for this compound: N#Cc1nc(-c2ccccc2)oc1N1CCC(C2(C(F)(F)F)N=N2)CC1
104

Please give the measured growth for this compound: CC[C@]12C=CCN3CC[C@]4(C(=C(C(=O)OC)C1)Nc1cc5c(cc14)[C@@H]1[C@H](O5)[C@@H](O)[C@@]4(CC)CC(C(=O)OC)=C5Nc6cc(O)ccc6[C@@]56CCN1C46)C32 (stereo partly drawn)
-70.5

Please give the measured growth for this compound: CN1CCN(CCCCCC(=O)Nc2nc(-c3cccc(NS(=O)(=O)c4cccc5c(N(C)C)cccc45)c3)cs2)CC1
51.6

Please give the measured growth for this compound: O=C(CSc1cc[n+](CCCCO)c2ccccc12)n1ccc2ccccc21
99.6

Please give the measured growth for this compound: O=C(CN1CCN(c2cc(=O)[nH]c3ccc(F)cc23)CC1)N(c1ccccc1)c1ccccc1
98

Please give the measured growth for this compound: COc1ccc(-c2nc(C#N)c(N3CCC(S(=O)(=O)N4CCOCC4)CC3)o2)cc1
110
